system: SK-MEL-28 melanoma; experiment: NCI tumour cell line growth inhibition, 48 h
quantity-name: TGI

See these solved cases before continuing.
Nc1nc(N)c2nc(CN(C=O)c3ccc(C(=O)O)cc3)cnc2n1	> 100 µM
COC(=O)c1ccccc1CC1Cc2c(C)ccc(C)c2C1=O (stereo unspecified)	> 100 µM
CCSC[C@@H]1C[C@](O)(c2ccccc2)[C@@H](c2ccccc2)O1	> 100 µM
Cc1ccc(-c2nc(NCCOCCOCCN)nc(N3CCN(c4ccccn4)CC3)n2)cc1	12.4 µM
CCOC(=O)Cc1c(C(=O)OCC)[n+](=O)c2cc(Cl)c(Cl)cc2n1[O-]	17.4 µM

Alright, here's another compound for you.
# get_value(readout='TGI', item= CC[C@H](C)[C@H](NC(=O)C12C3C4C1C1C2C3C41NC)C(=O)N(C)[C@H](C[C@@H](OC(C)=O)c1nc(C(=O)N[C@@H](Cc2ccccc2)C[C@H](C)C(=O)OC)cs1)C(C)C (stereo partly specified) ) > 14.3 µM

----------
Catalogue of molecules with associated log10 of TGI
system: SF-268 CNS; assay: NCI tumour cell line growth inhibition, 48 h
Please note: log10 values; quantity TGI; unit µM.

See these solved cases before continuing.
Fc1ccccc1CN1COc2c(cc(Cl)c3cccnc23)C1	1.31
COc1cc(N=Nc2cc(Cc3ccc(N(C)C)cc3)c(N)cc2N(C)C)c2ncccc2c1	0.36
Cc1ccc(-c2nc(NCCOCCOCCN)nc(N3CCN(c4ccccn4)CC3)n2)cc1	1.48
COc1ccc(/C=C/C(=N\NC(=O)c2ccccc2)c2sc(Nc3ccc([N+](=O)[O-])cc3)nc2C)cc1OC	1.53

What value of log10 of TGI on SF-268 CNS does O=C(Nc1ccn(C2CC(O)C(COC(c3ccccc3)(c3ccccc3)c3ccccc3)O2)c(=O)n1)c1ccccc1 (configuration not stated) have? 1.30

// same read-out, input: Cc1nn2c(=O)c([N+](=O)[O-])c(/C=C/c3ccc(F)cc3)nc2s1 1.42

// same read-out, input: Cc1nc2ccc(NCCN(C)C)c3c(=O)c4ccccc4n1c23 1.31

// same read-out, input: [Br][Pb]([c]1ccccc1)([c]1ccccc1)[c]1ccccc1 -0.46

// same read-out, input: CN(C)S(=O)(=O)c1ccc2[nH]c(O)c(C3=Nc4ccccc4C3=O)c2c1 1.59

// same read-out, input: O=C1c2cc3c(cc2NC(c2ccccc2F)C1O)OCO3 (configuration not stated) 1.83

----------
tested on: CCRF-CEM leukemia; experiment: NCI tumour cell line growth inhibition, 48 h; in the data active means GI50 below about 0.43 µM; inactive means the rest
Pick from active, inactive when you respond.

Consider the following illustrative entries.
Cn1c(=O)c(-c2ccccc2Cl)cc2cnc(NC3CCOCC3)nc21	inactive
Clc1ccc(C=Nc2ccc(-c3nc4ccccc4[nH]3)cc2)cc1	inactive
N[C@@H]1CCCN(c2c(Br)cnc3[nH]cc(NC(=O)C4CC4)c23)C1	active
O=C(/C=C/c1ccc(O)c(O)c1)N1CCN(c2ccc(Cl)cc2)CC1	inactive

Now consider a different molecule.
What outcome does the record of this test show for COc1cc2c(c(OC)c1OC)-c1cc(I)c(O)cc1[C@@H](NC(C)=O)CC2 ? active

----------
tested on: NCI/ADR-RES ovarian; experiment: NCI tumour cell line growth inhibition, 48 h
quantity-name: log10(TGI) (log10 of the value in µM)
Please note: log10 values; quantity TGI; unit µM.

See these solved cases before continuing.
CCc1ccc2c(c1)C(=O)c1c-2n(CCCN)c(=O)c2cc(OC)c(OC)cc12	0.51
COc1cc(N=Nc2cc(Cc3ccc(N(C)C)cc3)c(N)cc2N(C)C)c2ncccc2c1	0.20
CC(C)(C)N/N=C(/Cc1nc2c3c(ccc2[nH]c1=O)C(=O)c1ccccc1C3=O)C(=O)NC1=C(Cl)C(=O)c2ccccc2C1=O	1.65

# get_value(readout='log10(TGI)', item= Clc1ccc2c(NCCNc3nc(N4CCOCC4)nc4ccccc34)ccnc2c1 ) 1.19

// same read-out, input: S=c1ssnc1-c1cc2ccccc2o1 1.96

// same read-out, input: COc1cc(-c2nc(-c3ccccc3)c(-c3ccccc3)[nH]2)cc(OC)c1O 1.87

// same read-out, input: Nc1nc(SCc2ccccc2CCl)c2[nH]cnc2n1 1.83
